# study target: T1, GST-fused BRI1 kinase domain (Arabidopsis, UniProt O22476 814-1196)
# T1 construct: BRASSINOSTEROID … 1 (BRI1), Arabidopsis, kinase domain, residues 814-1196; also called GST-BRI1-KD; BRI1-KD; source: E. coli (pGEX-4T-1); not shown: GST, N-terminal, kept
# T1 sequence (looked up): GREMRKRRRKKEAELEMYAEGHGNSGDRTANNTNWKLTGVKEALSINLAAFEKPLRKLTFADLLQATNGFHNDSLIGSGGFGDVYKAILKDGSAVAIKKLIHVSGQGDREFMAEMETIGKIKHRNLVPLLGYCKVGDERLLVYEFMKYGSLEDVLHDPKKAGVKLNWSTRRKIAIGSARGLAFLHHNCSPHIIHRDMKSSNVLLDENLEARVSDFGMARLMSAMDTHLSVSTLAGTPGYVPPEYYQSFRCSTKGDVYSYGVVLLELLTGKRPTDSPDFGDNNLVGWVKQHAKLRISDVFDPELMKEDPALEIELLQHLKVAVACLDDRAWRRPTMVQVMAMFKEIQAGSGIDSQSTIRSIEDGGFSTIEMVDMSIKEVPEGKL
# test description: pull-down; about 15 μg GST fusion with about 30 μg MBP fusion in 900 μL TGH buffer (10% glycerol, 1% Triton X-100, 1.5 mM MgCl2, 150 mM NaCl, 1 mM EGTA, 50 mM HEPES, pH 7.5); 30 μL GST beads, about 1 h; immunoblot with anti-MBP and anti-GST
# measurement context: both partners purified
readout type: binding result

{"binder": "MBP-AGG3 (natural protein, Arabidopsis, UniProt Q6AWT8 1-251, looked up, AGG3, Arabidopsis G protein gamma subunit 3; also called G protein gamma subunit; source: E. coli (pMAL-c2); not shown: MBP, N-terminal, kept) MSAPSGGGEGGGKESAAGGVSSSSLAPSSLPPPRPKSPPEYPDLYGKRREAARVQMLEREIGFLEGEIKFIEGVQPASRCIKEVSDFVVANSDPLIPAQRKSRRSFRFWKWLCGPCLSLVSFCCCCQSKCSCHLRKPKCCNCTSCSCIGSKCCDGSCCSNICCCPRLSCPSCSCFRGCWCSCPDMSCCIPSCFRSCSCTRPSCLNKKKSSCCSCNCKIRWSSCFSCPKVRLCSCCFCNCKNLCSNPCCLAF", "test result": "binds"}
